# Tested on: OVCAR-8 ovarian
# METHOD_SUMMARY: NCI tumour cell line growth inhibition, 48 h
VALUE_KIND: GI50

Some solved entries appear below for comparison.
COc1cc2c3c(n(CCCNCCCNCCCn4c5c(c6cc(OC)c(OC)cc6c4=O)C(=O)c4ccccc4-5)c(=O)c2cc1OC)-c1ccccc1C3=O    2870 nM
CCCCCC/C=C\CCCCCCCCCc1cc(O)cc(OC)c1O    307 nM
COc1ccc(C(=O)C2C(C#N)C(C#N)C3C=Cc4ccccc4N32)cc1 (stereo not drawn)    3290 nM

Please turn your attention to the following entry.
Exam item: So what's the measured GI50 for this one? CO/N=C(\COc1ccc2c(=O)cc(-c3ccccc3)oc2c1)c1ccc(F)cc1
Marked response: 40700 nM

###

# System: BT-549 breast
# METHOD_SUMMARY: NCI tumour cell line growth inhibition, 48 h
Reported TGI values for a set of compounds
// units = µM; emit number, no label

Cc1ccc2nc3ccccc3c(NCc3ccccc3)c2c1    11.7
COc1c(C)c(OC)c2c(c1O)[C@@H]1[C@@H]3Cc4c(OC)c(C)c(OC)c(O)c4[C@H](CNC(=O)c4ccc5ccccc5n4)N3[C@@H](C#N)[C@H](C2)N1C    0.00172
C=C1C2CC[C@@](C)(O)C2[C@H]2OC(=O)C(=C)[C@@H]2C[C@H]1O (stereo partly drawn)    24.8

Exam item: # query: TGI of entry COc1ccc2oc(=O)cc(C3c4ccc([nH]4)C(c4cc(=O)oc5ccc(OC)cc45)c4ccc([nH]4)C(c4cc(=O)oc5ccc(OC)cc45)c4ccc([nH]4)C(c4cc(=O)oc5ccc(OC)cc45)c4ccc3[nH]4)c2c1 (stereo not drawn)
Marked response: 5.36

###

Measured TGI values are reported for all entries that follow.
# Tested on: UO-31 renal
# METHOD_SUMMARY: NCI tumour cell line growth inhibition, 48 h

CC[C@H](CC[C@@H](C)[C@H]1CC[C@H]2[C@@H]3CC=C4C[C@@H](O)CC[C@]4(C)[C@H]3CC[C@]12C)C(C)C    > 100 µM
O=C(/C=C/c1ccccc1O)C(c1ccccc1)c1ccccc1    > 100 µM
CC(C)(C)c1ccc2c(c1)S(=O)(=O)Nc1cccc(c1)NS(=O)(=O)c1cc(C(C)(C)C)ccc1OCCOCCO2    > 100 µM
CCN(CC)CCCNc1ccc2ncn3c4ccc(O)cc4c(=O)c1c23    13.4 µM

Here's the next entry for you.
Exam item: What TGI value was documented for this molecule, O=C1NC(=O)C2C1c1[nH]c3ccccc3c1C1CCCC12 (stereo not given) ?
Marked response: > 100 µM

###

# Tested on: HOP-92 NSCLC
# METHOD_SUMMARY: NCI tumour cell line growth inhibition, 48 h
VALUE_KIND: TGI (µM)
Give just the numeric value; µM need not be written.

COC(=O)[C@@H](NC1(c2ccccc2)c2ccccc2-c2ccccc21)[C@H](OC(=O)[C@H]1CCCN1S(=O)(=O)c1ccccc1)C(=O)OC    84.1

Exam item: Please report the recorded TGI for COc1ccc(NC(=O)c2sc3nc(C)c(C(=O)/C=C/c4ccccc4)cc3c2N)cc1 .
Marked response: 6.65

Exam item: Ok, now N#Cc1c(-c2ccc(Cl)cc2)cc(-c2cc(O)ccc2O)nc1N
Marked response: 10.8

Exam item: Same thing, different compound: CCOC(=O)/C=C\[C@H]1OC(C)(C)O[C@H]1[C@H](O)[C@H]1COC(C)(C)O1
Marked response: 31.3

###

# Test system: NCI-H23 lung
# METHOD_SUMMARY: NCI tumour cell line growth inhibition, 48 h
Catalogue of TGI values

CO/C(N)=C(\C#N)N=Cc1ccccc1    > 100 µM

Exam item: Need TGI, item C=CCN1C(=O)C(=O)N(CC=C)C(=O)C1=O
Marked response: > 100 µM

Exam item: Check O=C(N/N=C\c1cc(Cl)ccc1O)c1ccncc1 too.
Marked response: > 100 µM

Exam item: Param item: NCCSCC(N)C(=O)O (stereo not given)
Marked response: > 497 µM

Exam item: Then what about the compound COc1c(C)c(OC)c2c(c1O)[C@@H]1[C@@H]3Cc4c(OC)c(C)c(OC)c(O)c4[C@H](CNC(=O)c4ccc5ccccc5n4)N3[C@@H](C#N)[C@H](C2)N1C ?
Marked response: 0.00187 µM

Exam item: Request: O=S1[C@H](c2ccccc2)c2c(-c3ccccc3)sc(-c3ccccc3)c2[C@@H]1c1ccccc1 (stereo not given in full)
Marked response: > 100 µM

Exam item: Also O=C(/C=C/c1ccccc1O)C(c1ccccc1)c1ccccc1 , if possible.
Marked response: > 100 µM

Exam item: Next record, please: C=C1CC(c2ccc(O)c(OC)c2)Oc2c(OC)cccc21 (stereo not given)
Marked response: > 100 µM

Exam item: Note, next up: CO[C@]12C#CC=CC#C[C@@H](O)[C@]3(CCC1)O[C@@]23c1cccc(O)c1
Marked response: > 100 µM

Exam item: Okay, and C=C1C[C@H](O)[C@H]2C(C[Se]c3ccccc3)C(=O)O[C@@H]2[C@H]2[C@H](C)C(O)C[C@@H]12 (stereo not given in full) ?
Marked response: 40.7 µM

###

Examples of molecules with documented TGI follow.
# Tested on: HS 578T breast
# METHOD_SUMMARY: NCI tumour cell line growth inhibition, 48 h
Number only, in µM; omit the unit.

N#CCCN1C/C(=C/c2ccccc2)C(=O)/C(=C/c2ccccc2)C1    13.3

Exam item: Look up TGI: O=C(O)[C@@H]1CCCN1Cc1cc2cc3c(cc2c2cc(OCc4ccccc4)ccc12)OCO3
Marked response: 49.2

Exam item: Now try O=c1[nH]c2ccccc2nc1CBr .
Marked response: 42

###

# Test system: SN12C renal
# METHOD_SUMMARY: NCI tumour cell line growth inhibition, 48 h; in the data active = GI50 below about 0.43 µM; inactive = the rest
// classify into 1.0 = active, 0.0 = inactive

Before answering, review these 4 worked examples.
O=[N+]([O-])[O][Sn]([O][Sn]([O][N+](=O)[O-])([c]1ccccc1)[c]1ccccc1)([c]1ccccc1)[c]1ccccc1    0.0
C=CCCCC(=O)CCC(=O)OCC1O[C@@H](O[C@@H]2C(O)[C@@H](OC(C)=O)C(C)O[C@H]2O[C@H](CC=C)CCCCC)C(O)[C@@H](OC(=O)/C(C)=C/C)[C@@H]1OC(=O)/C=C/c1ccccc1 (stereo not given in full)    1.0
O=c1c2sc3ccccc3c2nnn1-c1ccc(F)c(Cl)c1    0.0
C[C@@H]1CCC2[C@@H](C)[C@@H](OC3CCC(O)CC3)OC3O[C@@]4(C)CCC1[C@]32OO4 (stereo not given in full)    0.0

Note: attention shifts to another entry.
Exam item: For COc1ccc(C(=O)C2C(C#N)C(C#N)C3C=Cc4ccccc4N32)cc1 (stereo not given) , what call appears in the results of this test?
Marked response: 0.0

###

Parameter: TGI. Scope: all listed entries.
# Test system: SNB-75 CNS
# METHOD_SUMMARY: NCI tumour cell line growth inhibition, 48 h

COC1OC(C)C(OC(=O)C(C)(C)C)C(OS(=O)(=O)c2ccc(C)cc2)C1OS(=O)(=O)c1ccc(C)cc1 (stereo not given)    > 100 µM
N#Cc1c(-c2ccc(Cl)cc2)cc(-c2cc(O)ccc2O)nc1N    4.04 µM

Exam item: Which TGI value belongs to O=C(Nc1ccc(-n2ccc3c(NC(=O)c4ccccc4)nccc32)cc1)c1cccc(C(F)(F)F)c1 ?
Marked response: 6.59 µM

Exam item: CCCCCC/C=C\CCCCCCCCCc1cc(O)cc(OC)c1O , same question.
Marked response: 1.44 µM

Exam item: Next entry: Clc1ccc(CN2COc3c(ccc4cccnc34)C2)cc1Cl
Marked response: 13.4 µM

Exam item: Then this compound: c1ccc(C2=NOC3COc4ccccc4OCC23)cc1 (stereo not given)
Marked response: > 100 µM

Exam item: What about this compound? C=C[C@H]1CN2CCc3c([nH]c4cc(O)ccc34)[C@@H]2C[C@@H]1C[C@H]1c2[nH]c3ccccc3c2CCN1C
Marked response: 6.62 µM

Exam item: Then O=C(c1c(Cl)cc(Cl)cc1Cl)N(Cc1cccnc1)C(=S)N(Cc1cccnc1)C(=O)c1c(Cl)cc(Cl)cc1Cl ?
Marked response: 14.2 µM

Exam item: // query: CCOC(=O)C(C)(C)Oc1ccc(Cl)cc1
Marked response: > 1000 µM

Exam item: Lookup CC(C)(C)c1ccc2c(c1)S(=O)(=O)Nc1cccc(c1)NS(=O)(=O)c1cc(C(C)(C)C)ccc1OCCOCCO2
Marked response: > 100 µM

###

# Tested on: K-562 leukemia
# METHOD_SUMMARY: NCI tumour cell line growth inhibition, 48 h
// reported TGI for each item listed

Take a look at these entries with their results.
C[PH+](C)C.C[PH+](C)C.[Au]    10.6 µM
C[C@]12CC[C@@H]3c4ccc(OS(N)(=O)=O)cc4CC[C@H]3[C@@H]1CCC2=O    > 100 µM
c1ccc(C[n+]2ccc3c(c2)CCCC3)cc1    > 100 µM
O=c1[nH]cnc2c1cnn2Cc1cn(COCC(O)CO)nn1 (stereo not given)    > 100 µM
C=C[C@@]1(C)CC2(C=C(CO)C(O)O2)Oc2c1c(=O)oc1cccc(C)c21 (stereo not given in full)    7.46 µM

Exam item: What does the record list as TGI for COC(=O)c1c(C(=O)OC)c2ccc(-c3ccc(Cl)cc3)nn2c1C(=O)c1ccc([N+](=O)[O-])cc1 ?
Marked response: > 100 µM

Exam item: What do we get for CC(=O)Oc1cc2c[n+](C)c3c4cc(OC(C)=O)c(OC(C)=O)cc4ccc3c2cc1OC(C)=O ?
Marked response: > 100 µM

Exam item: Further, for CCCCCCC(C)c1ccc2c(c1)C(=O)c1nc3ccncc3c(=O)n1-2 (stereo not given) ?
Marked response: 2.91 µM

Exam item: Next: COc1cc2c(c(OC)c1)C(C)=NC(C)C2 (stereo not given)
Marked response: > 100 µM

Exam item: Also COc1cccc(NC(=O)c2c(SC)c(C#N)c(=O)n(N)c2N)c1 ?
Marked response: > 100 µM
